In this section, each of the compounds is paired with its reported half-life.
Assay name: in vitro
Study conditions: male, Sprague-Dawley, rat, microsomes, pH 7.4
Hi! Could you send only the number? It should be in h, unit omitted.

* O=C(/N=N/c1ccc(F)cc1)N1CCCCC1 | 1.22

// below: half-life requested for another compound
q: Assign half-life to the following record: O=C(/C=C/c1ccc(F)cc1)N1CCCCC1
a: 1.42
